molecular target: T1, mesothelin-Fc recombinant protein (human, UniProt Q13421 296-580, limits assumed); assay: FACS of T cells expressing the scFv CAR, stained with Mesothelin-Fc + PE-anti-IgG-Fc; Mock T cells of the same block: 0.63
T1 construct: also called mesothelin-Fc protein; human Mesothelin-Fc; not shown: Fc part
T1 sequence (Q13421 other isoform, or with tags, fused parts or gaps limits assumed): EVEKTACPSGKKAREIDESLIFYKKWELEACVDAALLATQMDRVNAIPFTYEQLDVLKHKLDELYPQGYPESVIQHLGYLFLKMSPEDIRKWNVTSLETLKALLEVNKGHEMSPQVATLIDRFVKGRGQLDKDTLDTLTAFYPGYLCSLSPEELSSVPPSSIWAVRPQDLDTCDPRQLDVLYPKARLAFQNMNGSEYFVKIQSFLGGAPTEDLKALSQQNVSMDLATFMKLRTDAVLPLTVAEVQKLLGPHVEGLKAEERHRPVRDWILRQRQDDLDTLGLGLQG
OBSERVABLE: number in the Mesothelin-Fc positive gate (percent of cells, unit not given)
# answer = number (no unit)

Reference set, count: 5
binder="anti-mesothelin scFv-M7 (scFv) DIRLTQSPSSLSASLGDRVTITCRASQAISSALAWYQQKPGKAPRLLIYDASTLESGVPSRFSGSGSGTDFTLTISSLQPEDFATYYCQQADSFPLTFGGGTKLEIKGGGGSGGGGSGGGGSQVQLVQSGAEVKKSGESLKISCKGSGYGFGAYWIAWVRQMPGKGLEWMGIIYPGDSRVIYSPYFQGQVTISADKSISTAYLQWSSLKASDTAMYYCARFGGPKFATNWFDIWGQGTTVTVSS" endpoint_result=36.3
binder="anti-mesothelin scFv-M6 (scFv) EIVMTQSPATLSLSPGERATLSCRASQSIGNSLAWYQQKPGQAPRLLIYDVSNRATGIPARFSGSGSGTDFTLTISSLEPEDFAVYYCQHRYSWPLTFGGGTKVEIKGGGGSGGGGSGGGGSQVQLVQSGGGLVKPGGSLRLSCAASGFTFSDYYMSWIRQAPGKGLEWVSYISSSGSTIYYADSVKGRFTISRDNAKNSLYLQMNSLRAEDTAVYYCARDGYRTHNWFDPWGQGTLVTVSS" endpoint_result=83.4
binder="anti-mesothelin scFv-M8 (scFv) DIQLTQSPSSLSASVGDRVTITCRASQSISSSLNWYQQKPGKAPKLLIYAASSLQSGVPSRFSGSGSGTDFTLTISSLQPEDFATYSCQQSYSTPLTFGGGTKVEIKGGGGSGGGGSGGGGSQVHLVESGGGVVQPGRSLRVSCAASGFTFSGYAMYWVRQAPGKGLEYVSAITTNGGSTNYADSVKGRFTISRDNSKNTLYLQMSSLRAGDTAVYYCARGAPGYRGYYMDVWGKGTTVTVSS" endpoint_result=80.8
binder="M18 (scFv) chain 1: QVQLVQSGGGLVQPGGSLRLSCAASGFTFSSYWMHWVRQAPGKGLVWVSRINSDGSSTSYADSVKGRFTISRDNAKNTLYLQMNSLRAEDTAVYYCVRTGWVGSYYYYMDVWGKGTTVTVSS chain 2: EIVLTQSPGTLSLSPGERATLSCRASQSVSSNYLAWYQQKPGQPPRLLIYDVSTRATGIPARFSGGGSGTDFTLTISSLEPEDFAVYYCQQRSNWPPWTFGQGTKVEIK" endpoint_result=9.53
binder="anti-mesothelin scFv-M15 (scFv) DIQLTQSPSSLSASIGDRVTITCRASQGVNSALAWYQQKPGKPPNLLIYDASSLESGVPSRFSGSGSGRDFTLTISSLQPEDFATYYCQQFSSYPLTFGGGTKVDIKGGGGSGGGGSGGGGSQVQLVQSGAEVKKPGASVKVSCKASGYTFTSYYMHWVRQAPGQGLEWMGIINPSGGSTSYAQKFQGRVTMTRDTSTSTVYMELSSLRSEDTAVYYCARAQRGGSVYFDYWGQGTLVTVSS" endpoint_result=48.8

Provide only the value of recorded number in the Mesothelin-Fc positive gate (percent of cells, unit not given) for anti-mesothelin scFv-M13 (scFv) AIRMTQSPSSLSASVGDRVTITCRASQGISNSLAWYQQKPGKAPKLLLYAASRLESGVPSRFSGSGSGTDYTLTISSLQPEDFATYYCQQYYSTPFTFGPGTKLEIKGGGGSGGGGSGGGGSQVQLVQSGAEVKKPGSSVKVSCKTSADTFSANTINWVRQAPGHGLEWMGRIIPSLNIRDYAQEFQGRVTFTADESTNTVYMQLTSLRSEDTAVYYCARDPGSTWSPNQFFPHWGQGTLVTVSS 71.1
